- System: MERS-CoV
- Assay procedure: microbe, parasite or virus in culture
- Format: cell-based, Middle East respiratory syndrome coronavirus
- Condition context: Middle East respiratory syndrome-related coronavirus, MRC5
pEC50: −log10 of the molar value.

{"Compound": "CONC(=O)[C@H]1[C@@H](O)[C@@]2(O)c3c(OC)cc(OC)cc3O[C@@]2(c2ccc(OC)cc2)[C@@H]1c1ccccc1 [CR-31-B (−)]", "Target or test system": "MERS-CoV", "pEC50": 8.68}
{"Compound": "COC(=O)[C@H]1[C@@H](O)[C@@]2(O)c3c(OC)cc(O[C@@H]4O[C@@H]([C@H](O)CO)CO[C@H]4OC)cc3O[C@@]2(c2ccc(OC)cc2)[C@@H]1c1ccccc1 [Silvestrol, reference compound]", "Target or test system": "MERS-CoV", "pEC50": 8.89}

====

- System: A549 cells
- Condition context: human
Experimental readout: CC50 (nM)

{"Molecule": "COC(=O)[C@H]1[C@@H](O)[C@@]2(O)c3c(OC)cc(O[C@@H]4O[C@@H]([C@H](O)CO)CO[C@H]4OC)cc3O[C@@]2(c2ccc(OC)cc2)[C@@H]1c1ccccc1 [Silvestrol, reference compound]", "Experimental result": 9.42}

Entry source: patent US20250345307A1
